Listing of entries alongside the reported % Remaining in Solution.
experiment: Partition of avermectins between aqueous acetone and Duolite ES-863 resin (HPLC of supernatant before and after equilibration); details: 42.9% acetone (vol); 4 ml supernatant, 1 g ES-863 resin, equilibrated for an hour
Give just the numeric value; % need not be written.

// worked examples, % Remaining in Solution included
CCC(C)C1OC2(CC3CC(CC=C(C)C(OC4CC(OC)C(OC5CC(OC)C(O)C(C)O5)C(C)O4)C(C)C=CC=C4COC5C(OC)C(C)=CC(C(=O)O3)C45O)O2)CC(O)C1C (stereo not shown) | 3.76
COC1CC(OC2C(C)OC(OC3C(C)=CCC4CC(CC5(C=CC(C)C(C(C)C)O5)O4)OC(=O)C4C=C(C)C(OC)C5OCC(=CC=CC3C)C45O)CC2OC)OC(C)C1O (stereo not shown) | 3.13
CCC(C)C1OC2(C=CC1C)CC1CC(CC=C(C)C(OC3CC(OC)C(OC4CC(OC)C(O)C(C)O4)C(C)O3)C(C)C=CC=C3COC4C(OC)C(C)=CC(C(=O)O1)C34O)O2 (stereo not shown) | 4.39

Let us examine a further case.
% Remaining in Solution recorded for this molecule, COC1CC(OC2C(C)OC(OC3C(C)=CCC4CC(CC5(CC(O)C(C)C(C(C)C)O5)O4)OC(=O)C4C=C(C)C(OC)C5OCC(=CC=CC3C)C45O)CC2OC)OC(C)C1O (stereo not shown) , is 1.71

###

test: Partition of avermectins between aqueous acetone and Duolite ES-863 resin (HPLC of supernatant before and after equilibration); details: 42.9% acetone (vol); 4 ml supernatant, 1 g ES-863 resin, equilibrated for an hour
Quantity measured: % Remaining in Solution (%)
Give just the numeric value; % need not be written.

CCC(C)C1OC2(CC3CC(CC=C(C)C(OC4CC(OC)C(OC5CC(OC)C(O)C(C)O5)C(C)O4)C(C)C=CC=C4COC5C(O)C(C)=CC(C(=O)O3)C45O)O2)CC(O)C1C (stereo not drawn) | 2.65

% Remaining in Solution recorded for this molecule, COC1CC(OC2C(C)OC(OC3C(C)=CCC4CC(CC5(CC(O)C(C)C(C(C)C)O5)O4)OC(=O)C4C=C(C)C(O)C5OCC(=CC=CC3C)C45O)CC2OC)OC(C)C1O (stereo not drawn) , is 3.89

% Remaining in Solution recorded for this molecule, COC1CC(OC2C(C)OC(OC3C(C)=CCC4CC(CC5(C=CC(C)C(C(C)C)O5)O4)OC(=O)C4C=C(C)C(O)C5OCC(=CC=CC3C)C45O)CC2OC)OC(C)C1O (stereo not drawn) , is 2.13

###

assay: Partition of avermectins between aqueous acetone and Duolite ES-863 resin (HPLC of supernatant before and after equilibration); details: 27.3% acetone (vol); 4 ml supernatant, 1 g ES-863 resin, equilibrated for an hour
Quantity measured: % Remaining in Solution (%)
Give just the numeric value; % need not be written.

CCC(C)C1OC2(C=CC1C)CC1CC(CC=C(C)C(OC3CC(OC)C(OC4CC(OC)C(O)C(C)O4)C(C)O3)C(C)C=CC=C3COC4C(OC)C(C)=CC(C(=O)O1)C34O)O2 (stereo not shown) [A1a] | 8.42
COC1CC(OC2C(C)OC(OC3C(C)=CCC4CC(CC5(C=CC(C)C(C(C)C)O5)O4)OC(=O)C4C=C(C)C(O)C5OCC(=CC=CC3C)C45O)CC2OC)OC(C)C1O (stereo not shown) [B1b] | 4.55
COC1CC(OC2C(C)OC(OC3C(C)=CCC4CC(CC5(CC(O)C(C)C(C(C)C)O5)O4)OC(=O)C4C=C(C)C(OC)C5OCC(=CC=CC3C)C45O)CC2OC)OC(C)C1O (stereo not shown) [A2b] | 3.73
CCC(C)C1OC2(CC3CC(CC=C(C)C(OC4CC(OC)C(OC5CC(OC)C(O)C(C)O5)C(C)O4)C(C)C=CC=C4COC5C(OC)C(C)=CC(C(=O)O3)C45O)O2)CC(O)C1C (stereo not shown) [A2a] | 6.99
CCC(C)C1OC2(CC3CC(CC=C(C)C(OC4CC(OC)C(OC5CC(OC)C(O)C(C)O5)C(C)O4)C(C)C=CC=C4COC5C(O)C(C)=CC(C(=O)O3)C45O)O2)CC(O)C1C (stereo not shown) [B2a] | 5.37

% Remaining in Solution recorded for this molecule, COC1CC(OC2C(C)OC(OC3C(C)=CCC4CC(CC5(C=CC(C)C(C(C)C)O5)O4)OC(=O)C4C=C(C)C(OC)C5OCC(=CC=CC3C)C45O)CC2OC)OC(C)C1O (stereo not shown) [A1b] , is 6.42

% Remaining in Solution recorded for this molecule, COC1CC(OC2C(C)OC(OC3C(C)=CCC4CC(CC5(CC(O)C(C)C(C(C)C)O5)O4)OC(=O)C4C=C(C)C(O)C5OCC(=CC=CC3C)C45O)CC2OC)OC(C)C1O (stereo not shown) [B2b] , is 2.34

###

assay: Partition of avermectins between aqueous acetone and Duolite ES-863 resin (HPLC of supernatant before and after equilibration); settings: 25.0% acetone (vol); 4 ml supernatant, 1 g ES-863 resin, equilibrated for an hour
Quantity measured: % Remaining in Solution (%)
Give just the numeric value; % need not be written.

CCC(C)C1OC2(CC3CC(CC=C(C)C(OC4CC(OC)C(OC5CC(OC)C(O)C(C)O5)C(C)O4)C(C)C=CC=C4COC5C(OC)C(C)=CC(C(=O)O3)C45O)O2)CC(O)C1C (stereo not shown) | 7.86
COC1CC(OC2C(C)OC(OC3C(C)=CCC4CC(CC5(C=CC(C)C(C(C)C)O5)O4)OC(=O)C4C=C(C)C(O)C5OCC(=CC=CC3C)C45O)CC2OC)OC(C)C1O (stereo not shown) | 6.32
COC1CC(OC2C(C)OC(OC3C(C)=CCC4CC(CC5(C=CC(C)C(C(C)C)O5)O4)OC(=O)C4C=C(C)C(OC)C5OCC(=CC=CC3C)C45O)CC2OC)OC(C)C1O (stereo not shown) | 5.63
COC1CC(OC2C(C)OC(OC3C(C)=CCC4CC(CC5(CC(O)C(C)C(C(C)C)O5)O4)OC(=O)C4C=C(C)C(OC)C5OCC(=CC=CC3C)C45O)CC2OC)OC(C)C1O (stereo not shown) | 5.38
CCC(C)C1OC2(C=CC1C)CC1CC(CC=C(C)C(OC3CC(OC)C(OC4CC(OC)C(O)C(C)O4)C(C)O3)C(C)C=CC=C3COC4C(OC)C(C)=CC(C(=O)O1)C34O)O2 (stereo not shown) | 7.09

% Remaining in Solution recorded for this compound, CCC(C)C1OC2(CC3CC(CC=C(C)C(OC4CC(OC)C(OC5CC(OC)C(O)C(C)O5)C(C)O4)C(C)C=CC=C4COC5C(O)C(C)=CC(C(=O)O3)C45O)O2)CC(O)C1C (stereo not shown) , is 7.29

% Remaining in Solution recorded for this compound, COC1CC(OC2C(C)OC(OC3C(C)=CCC4CC(CC5(CC(O)C(C)C(C(C)C)O5)O4)OC(=O)C4C=C(C)C(O)C5OCC(=CC=CC3C)C45O)CC2OC)OC(C)C1O (stereo not shown) , is 5.08

###

test: Partition of avermectins between aqueous acetone and Duolite ES-863 resin (HPLC of supernatant before and after equilibration); conditions: 23.1% acetone (vol); 4 ml supernatant, 1 g ES-863 resin, equilibrated for an hour
Quantity measured: % Remaining in Solution (%)
Give just the numeric value; % need not be written.

// worked examples, % Remaining in Solution included
COC1CC(OC2C(C)OC(OC3C(C)=CCC4CC(CC5(C=CC(C)C(C(C)C)O5)O4)OC(=O)C4C=C(C)C(O)C5OCC(=CC=CC3C)C45O)CC2OC)OC(C)C1O (stereo not shown) | 5.03
COC1CC(OC2C(C)OC(OC3C(C)=CCC4CC(CC5(CC(O)C(C)C(C(C)C)O5)O4)OC(=O)C4C=C(C)C(OC)C5OCC(=CC=CC3C)C45O)CC2OC)OC(C)C1O (stereo not shown) | 3.89
COC1CC(OC2C(C)OC(OC3C(C)=CCC4CC(CC5(C=CC(C)C(C(C)C)O5)O4)OC(=O)C4C=C(C)C(OC)C5OCC(=CC=CC3C)C45O)CC2OC)OC(C)C1O (stereo not shown) | 4.85
CCC(C)C1OC2(C=CC1C)CC1CC(CC=C(C)C(OC3CC(OC)C(OC4CC(OC)C(O)C(C)O4)C(C)O3)C(C)C=CC=C3COC4C(OC)C(C)=CC(C(=O)O1)C34O)O2 (stereo not shown) | 6.75
CCC(C)C1OC2(CC3CC(CC=C(C)C(OC4CC(OC)C(OC5CC(OC)C(O)C(C)O5)C(C)O4)C(C)C=CC=C4COC5C(O)C(C)=CC(C(=O)O3)C45O)O2)CC(O)C1C (stereo not shown) | 6.09

% Remaining in Solution recorded for this compound, CCC(C)C1OC2(CC3CC(CC=C(C)C(OC4CC(OC)C(OC5CC(OC)C(O)C(C)O5)C(C)O4)C(C)C=CC=C4COC5C(OC)C(C)=CC(C(=O)O3)C45O)O2)CC(O)C1C (stereo not shown) , is 6.54

% Remaining in Solution recorded for this compound, COC1CC(OC2C(C)OC(OC3C(C)=CCC4CC(CC5(CC(O)C(C)C(C(C)C)O5)O4)OC(=O)C4C=C(C)C(O)C5OCC(=CC=CC3C)C45O)CC2OC)OC(C)C1O (stereo not shown) , is 4.80
